# target_under_test: nsp14 methyltransferase from SARS-CoV-2 (Severe acute respiratory syndrome coronavirus 2, UniProt P0DTD1)
# test_description: Nsp14 MTase activity inhibition in vitro (EchoMS assay)
# Type: biochemical
# study_conditions: recombinant nsp14 protein expressed in E. coli; dose-response curve
Quick reference for IC50 among some compounds

Examples with their reported IC50 follow.
INSERT INTO assay_data (compound, observable, test_value) VALUES
  ('Cc1noc(-c2ccccc2)c1CSC[C@H]1O[C@@H](n2cc(-c3ccc([N+](=O)[O-])cc3)c3c(N)ncnc32)[C@H](O)[C@@H]1O [Compound 144b]', 'IC50', '0.03 to 0.1 µM'),
  ('Cc1noc(-c2ccccc2)c1CSC[C@H]1O[C@@H](n2ccc3c(N)nc(Cl)nc32)[C@H](O)[C@@H]1O', 'IC50', '0.01 to 0.03 µM'),
  ('COc1ncnc(-c2ccccc2)c1CSC[C@H]1O[C@@H](n2ccc3c(N)ncnc32)[C@H](O)[C@@H]1O [Compound 110c]', 'IC50', '0.5 to 2 µM'),
  ('Cc1noc(-c2ccccc2)c1CSC[C@H]1O[C@@H](n2cc(C#Cc3ccc(C(N)=O)cc3)c3c(N)ncnc32)[C@H](O)[C@@H]1O [Compound 169b]', 'IC50', '0.03 to 0.1 µM'),
  ('Cc1noc(-c2ccccc2)c1CSC[C@H]1O[C@@H](n2cc(-c3ccc(N)cc3)c3c(N)ncnc32)[C@H](O)[C@@H]1O', 'IC50', '0.03 to 0.1 µM'),
  ('Cc1noc(-c2ccccc2)c1CSC[C@H]1O[C@@H](n2ccc3c(N)ncnc32)[C@H](O)[C@@H]1O [Compound 47c]', 'IC50', '0.03 to 0.1 µM'),
  ('Cc1ncnc(-c2ccccc2)c1CSC[C@H]1O[C@@H](n2cc(-c3ccc(C#N)cc3)c3c(N)ncnc32)[C@H](O)[C@@H]1O [Compound 232b]', 'IC50', '0.03 to 0.1 µM'),
  ('Cc1noc(-c2ccc3c(c2)OCO3)c1CSC[C@H]1O[C@@H](n2cc(C#Cc3cncnc3)c3c(N)ncnc32)[C@H](O)[C@@H]1O [Compound 243c]', 'IC50', '0.01 to 0.03 µM');

Quick note, IC50 for Cc1noc(-c2ccccc2)c1CSC[C@H]1O[C@@H](n2cc(C#Cc3nc4ccccc4[nH]3)c3c(N)ncnc32)[C@H](O)[C@@H]1O [Compound 179b] landed at 0.1 to 0.5 µM
